# target.under.test: RARb:RXRa (Homo sapiens, UniProt P10826;P19793 full;full)
# Sequence (P10826 whole entry, chain 1 of 2): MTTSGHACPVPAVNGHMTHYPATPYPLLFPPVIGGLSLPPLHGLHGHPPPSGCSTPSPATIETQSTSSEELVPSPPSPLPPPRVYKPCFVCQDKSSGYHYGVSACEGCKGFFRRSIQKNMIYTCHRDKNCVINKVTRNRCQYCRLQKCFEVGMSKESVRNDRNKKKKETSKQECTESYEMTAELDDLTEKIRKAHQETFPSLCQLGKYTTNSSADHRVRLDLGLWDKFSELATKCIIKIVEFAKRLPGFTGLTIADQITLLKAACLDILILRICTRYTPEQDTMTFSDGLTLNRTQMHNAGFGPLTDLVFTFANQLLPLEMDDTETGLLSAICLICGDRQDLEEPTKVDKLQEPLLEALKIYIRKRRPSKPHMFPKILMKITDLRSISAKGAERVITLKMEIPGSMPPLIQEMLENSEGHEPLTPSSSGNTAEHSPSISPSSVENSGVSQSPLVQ
# Sequence (P19793 whole entry, chain 2 of 2): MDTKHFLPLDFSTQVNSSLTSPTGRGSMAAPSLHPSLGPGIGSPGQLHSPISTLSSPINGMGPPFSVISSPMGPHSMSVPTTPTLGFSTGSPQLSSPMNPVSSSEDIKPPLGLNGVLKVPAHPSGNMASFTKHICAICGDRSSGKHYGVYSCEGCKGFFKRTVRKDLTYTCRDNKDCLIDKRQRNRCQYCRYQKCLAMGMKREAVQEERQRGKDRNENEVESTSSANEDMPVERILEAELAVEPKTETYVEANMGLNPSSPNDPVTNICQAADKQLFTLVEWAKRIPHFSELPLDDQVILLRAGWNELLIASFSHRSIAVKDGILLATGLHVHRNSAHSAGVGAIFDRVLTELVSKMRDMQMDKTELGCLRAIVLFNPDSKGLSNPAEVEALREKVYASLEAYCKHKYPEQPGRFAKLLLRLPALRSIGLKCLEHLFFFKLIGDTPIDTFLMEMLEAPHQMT
# experimental.details: no ligand; PBM; 270 nM : 90 nM RXRa; PBS pH 7.4, 2% milk, 0.02% Triton X-100, 1 mM DTT, BSA, 0.4 mg/ml salmon testes DNA
# run.conditions: tags: His kept;His cleaved; copies: 1;1; label: surface-attached array probe
reported.metric: binding signal

Prompt: Write down binding signal measured for item NRC3_wobSeed13_DR0_C7T_o1 (dsDNA) DNA 1: GCCGTCTAAGGTCAAGGTCAGTGAAAGAGACTCGAAGCGATTGACAGCGTAGAATGAAGG DNA 2: CCTTCATTCTACGCTGTCAATCGCTTCGAGTCTCTTTCACTGACCTTGACCTTAGACGGC
Response: 6 PBM z-score against 500 random probes

Ref: paper PMC6555819
